Source: patent US11661426B2

Target or system ALK2 (Homo sapiens (Human), UniProt Q04771); recorded quantity IC50.

{"Compound": "COc1cc(-n2cnc(Nc3nc(N4CCC[C@H]4CO)nc4c3cnn4C3CCCCO3)c2)cc(OC)c1OC (stereo partly drawn) [Compound 326c]", "Measured": "< 100 nM"}
{"Compound": "COc1cc(-n2cnc(Nc3ncc4c(n3)CCN(Cc3ccccc3)C4)c2)cc(OC)c1OC [Compound 201b]", "Measured": "< 100 nM"}
{"Compound": "COc1cc(-n2cnc(Nc3nc(N4CCC[C@H]4CO)c4ncn(C)c4n3)c2)cc(OC)c1OC [Compound 388b]", "Measured": "< 100 nM"}
{"Compound": "COc1cc(-n2cnc(Nc3nc4c(c(N5CCC[C@H]5CO)n3)CCN(Cc3ccc(C(F)(F)F)cc3)C4)c2)cc(OC)c1OC [Compound 215a]", "Measured": "< 100 nM"}
{"Compound": "OC[C@@H]1CCCN1c1cc(Cl)c2ccccc2n1 [Compound 367b]", "Measured": "> 1000 nM"}
{"Compound": "COc1cc2nc(Nc3cn(-c4cc(OC)c(OC)c(OC)c4)cn3)nc(N3CCC[C@H]3CO)c2cc1OC [Compound 221c]", "Measured": "< 100 nM"}

List reported IC50 for each of these compounds:
1. COc1cc(-n2cnc(Nc3nc(N4CC[C@@H](O)C4)nc4ccoc34)c2)cc(OC)c1OC [Compound 236a]
2. COc1cc(-n2cnc(Nc3nc(N4CCC[C@H]4C(N)=O)c4cccc(OC(C)C)c4n3)c2)cc(OC)c1OC [Compound 205b]

Outgoing:
1. < 100 nM
2. 100 to 1000 nM

List reported IC50 for each of these compounds:
1. COc1cc(-n2cnc(Nc3nc(N4CCC[C@H]4CO)nn4c(CN5CCCCC5)ccc34)c2)cc(OC)c1OC [Compound 105b]
2. COc1cc(-n2cnc(Nc3nc(N4CCC[C@H]4CO)c4c(C)nn(C)c4n3)c2)cc(OC)c1OC [Compound 377b]
3. COC(=O)c1cc(-n2cnc(Nc3nc(N4CCC[C@H]4C(N)=O)nn4cccc34)c2)cc(OC)c1OC [Compound 350d]
4. COc1cc(-n2cnc(Nc3nc(N4CCC[C@H]4CO)c4cccc(OC(C)C)c4n3)c2)cc(OC)c1OC [Compound 200b]
5. COc1cc(-n2cnc(Nc3nc(N4CCC[C@H]4CO)c4c(ccn4S(=O)(=O)c4ccc(C)cc4)n3)c2)cc(OC)c1OC [Compound 180b]
6. O=C(c1cnc(Nc2nc(N3CCC[C@H]3CO)nn3cccc23)s1)N1CCC[C@H]1CO [Compound 467c]
7. COC(=O)c1cc(-n2cnc(Nc3nc(N4CCC[C@H]4CO)c4cccn4n3)c2)cc(OC)c1OC [Compound 355a]

Outgoing:
["< 100 nM", "< 100 nM", "< 100 nM", "< 100 nM", "< 100 nM", "> 1000 nM", "< 100 nM"]
